FYI, the data here is from patent US9273040B2.

Item-by-item account of pIC50
- ASSAY SYSTEM: human Nav1.7 channels stably expressed in HEK 293 cells (Homo sapiens)
- Construct: expressed in transfected cells
- Sequence (Q15858 whole entry): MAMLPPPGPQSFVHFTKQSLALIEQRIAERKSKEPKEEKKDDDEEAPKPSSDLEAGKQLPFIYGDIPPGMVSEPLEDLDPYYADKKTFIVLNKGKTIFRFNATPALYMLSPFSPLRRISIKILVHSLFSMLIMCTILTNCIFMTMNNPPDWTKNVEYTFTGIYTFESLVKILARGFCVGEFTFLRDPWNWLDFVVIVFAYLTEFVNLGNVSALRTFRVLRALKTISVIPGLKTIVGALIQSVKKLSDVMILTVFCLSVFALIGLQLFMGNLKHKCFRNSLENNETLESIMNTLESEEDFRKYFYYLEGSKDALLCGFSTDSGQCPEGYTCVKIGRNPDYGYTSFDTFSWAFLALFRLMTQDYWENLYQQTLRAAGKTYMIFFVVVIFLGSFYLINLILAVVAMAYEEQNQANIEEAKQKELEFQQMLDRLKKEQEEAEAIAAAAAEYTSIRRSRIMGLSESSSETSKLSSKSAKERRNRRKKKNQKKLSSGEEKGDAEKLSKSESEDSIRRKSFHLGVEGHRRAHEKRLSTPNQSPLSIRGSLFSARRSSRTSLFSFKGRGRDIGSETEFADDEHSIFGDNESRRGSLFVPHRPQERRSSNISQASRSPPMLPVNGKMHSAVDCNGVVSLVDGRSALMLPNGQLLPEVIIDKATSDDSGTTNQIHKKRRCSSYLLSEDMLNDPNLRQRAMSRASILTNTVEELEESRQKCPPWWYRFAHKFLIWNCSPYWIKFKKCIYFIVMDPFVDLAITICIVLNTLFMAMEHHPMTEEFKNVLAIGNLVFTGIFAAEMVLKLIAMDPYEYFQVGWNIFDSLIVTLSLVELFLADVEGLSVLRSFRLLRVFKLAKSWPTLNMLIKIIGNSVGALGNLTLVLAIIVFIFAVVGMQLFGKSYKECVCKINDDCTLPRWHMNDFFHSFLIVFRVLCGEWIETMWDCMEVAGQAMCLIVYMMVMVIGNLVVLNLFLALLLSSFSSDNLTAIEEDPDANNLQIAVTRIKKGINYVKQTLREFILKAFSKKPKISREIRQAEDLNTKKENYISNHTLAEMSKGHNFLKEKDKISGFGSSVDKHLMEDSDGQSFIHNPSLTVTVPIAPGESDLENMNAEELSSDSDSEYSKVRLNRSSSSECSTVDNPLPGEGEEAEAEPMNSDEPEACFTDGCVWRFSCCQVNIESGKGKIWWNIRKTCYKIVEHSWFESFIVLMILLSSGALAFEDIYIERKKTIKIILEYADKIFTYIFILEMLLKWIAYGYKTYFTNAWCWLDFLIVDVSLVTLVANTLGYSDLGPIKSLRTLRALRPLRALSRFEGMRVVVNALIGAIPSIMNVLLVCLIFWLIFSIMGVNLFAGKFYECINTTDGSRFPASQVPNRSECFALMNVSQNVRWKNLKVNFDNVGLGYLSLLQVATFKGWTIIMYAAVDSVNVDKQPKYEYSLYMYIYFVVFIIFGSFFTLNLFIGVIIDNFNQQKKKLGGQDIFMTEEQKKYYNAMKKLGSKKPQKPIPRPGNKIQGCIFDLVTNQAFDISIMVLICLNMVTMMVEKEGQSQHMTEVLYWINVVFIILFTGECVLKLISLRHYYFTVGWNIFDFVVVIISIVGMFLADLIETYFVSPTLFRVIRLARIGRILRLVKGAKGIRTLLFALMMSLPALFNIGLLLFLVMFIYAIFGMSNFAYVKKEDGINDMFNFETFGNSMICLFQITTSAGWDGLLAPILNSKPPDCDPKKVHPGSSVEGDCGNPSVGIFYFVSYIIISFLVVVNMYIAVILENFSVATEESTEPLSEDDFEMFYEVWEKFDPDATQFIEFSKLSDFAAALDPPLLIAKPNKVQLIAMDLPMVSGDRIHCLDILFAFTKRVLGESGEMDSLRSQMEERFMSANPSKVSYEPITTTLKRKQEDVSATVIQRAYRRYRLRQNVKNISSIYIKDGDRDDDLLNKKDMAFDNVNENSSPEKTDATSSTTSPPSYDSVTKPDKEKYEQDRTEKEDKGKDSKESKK
- ASSAY METHOD TEXT: PatchXpress 7000 automated patch-clamp, sodium current
- Assay type: cell-based
- CONDITION SET: 22° C., read-out: potency for the Nav 1.7 sodium ion channel (as measured by PatchXpress)
pIC50: −log10 of the molar value.
MEASURED PARAMETER: pIC50

>  <COMPOUND>
O=c1oc2cc(S(=O)(=O)Nc3ncns3)c(F)cc2n1Cc1cccc2c1CNCC2

>  <ASSAY SYSTEM>
human Nav1.7 channels stably expressed in HEK 293 cells (Homo sapiens)

>  <READOUT NUMBER>
7.16

$$$$
>  <COMPOUND>
C[C@H](c1cccc2c1CNCC2)n1c(=O)oc2cc(S(=O)(=O)Nc3nccs3)c(F)cc21

>  <ASSAY SYSTEM>
human Nav1.7 channels stably expressed in HEK 293 cells (Homo sapiens)

>  <READOUT NUMBER>
7.10

$$$$
>  <COMPOUND>
C[C@H](c1ccccc1)n1c(=O)oc2cc(S(=O)(=O)Nc3ncns3)c(F)cc21

>  <ASSAY SYSTEM>
human Nav1.7 channels stably expressed in HEK 293 cells (Homo sapiens)

>  <READOUT NUMBER>
7.38

$$$$
>  <COMPOUND>
C[C@H](c1ccccc1C1=CCCNC1)n1c(=O)oc2cc(S(=O)(=O)Nc3ncns3)c(F)cc21

>  <ASSAY SYSTEM>
human Nav1.7 channels stably expressed in HEK 293 cells (Homo sapiens)

>  <READOUT NUMBER>
7.34

$$$$
>  <COMPOUND>
CC(=O)OCC(=O)NC1CCc2cccc(Cn3c(=O)oc4cc(S(=O)(=O)Nc5ncns5)c(F)cc43)c2C1 (single isomer, unassigned)

>  <ASSAY SYSTEM>
human Nav1.7 channels stably expressed in HEK 293 cells (Homo sapiens)

>  <READOUT NUMBER>
6.51

$$$$
>  <COMPOUND>
C[C@H](c1ccccc1C#CCNS(C)(=O)=O)n1c(=O)oc2cc(S(=O)(=O)Nc3ncns3)c(Cl)cc21

>  <ASSAY SYSTEM>
human Nav1.7 channels stably expressed in HEK 293 cells (Homo sapiens)

>  <READOUT NUMBER>
6.92

$$$$
>  <COMPOUND>
CNCC#Cc1ccccc1[C@@H](C)n1c(=O)oc2cc(S(=O)(=O)Nc3ncns3)c(F)cc21

>  <ASSAY SYSTEM>
human Nav1.7 channels stably expressed in HEK 293 cells (Homo sapiens)

>  <READOUT NUMBER>
7.29

$$$$
>  <COMPOUND>
CC(N)C#Cc1ccccc1[C@@H](C)n1c(=O)oc2cc(S(=O)(=O)Nc3ncns3)c(F)cc21 (some centres unmarked)

>  <ASSAY SYSTEM>
human Nav1.7 channels stably expressed in HEK 293 cells (Homo sapiens)

>  <READOUT NUMBER>
7.66

$$$$
>  <COMPOUND>
C[C@H](c1ccccc1)n1c(=O)oc2cc(S(=O)(=O)Nc3nccs3)ccc21

>  <ASSAY SYSTEM>
human Nav1.7 channels stably expressed in HEK 293 cells (Homo sapiens)

>  <READOUT NUMBER>
6.79

$$$$
>  <COMPOUND>
C[C@H](c1ccccc1C#CCN1CCOCC1)n1c(=O)oc2cc(S(=O)(=O)Nc3ncns3)c(F)cc21

>  <ASSAY SYSTEM>
human Nav1.7 channels stably expressed in HEK 293 cells (Homo sapiens)

>  <READOUT NUMBER>
6.48

$$$$
>  <COMPOUND>
C[C@H](c1ccccc1C1CNC1)n1c(=O)oc2cc(S(=O)(=O)Nc3nccs3)c(F)cc21

>  <ASSAY SYSTEM>
human Nav1.7 channels stably expressed in HEK 293 cells (Homo sapiens)

>  <READOUT NUMBER>
7.74

$$$$
>  <COMPOUND>
Cc1n[nH]cc1-c1cccc([C@@H](C)n2c(=O)oc3cc(S(=O)(=O)Nc4ncns4)c(F)cc32)c1

>  <ASSAY SYSTEM>
human Nav1.7 channels stably expressed in HEK 293 cells (Homo sapiens)

>  <READOUT NUMBER>
7.32

$$$$
>  <COMPOUND>
C[C@H](c1ccccc1C#CCN1CCC1)n1c(=O)oc2cc(S(=O)(=O)Nc3ncns3)c(F)cc21

>  <ASSAY SYSTEM>
human Nav1.7 channels stably expressed in HEK 293 cells (Homo sapiens)

>  <READOUT NUMBER>
7.55

$$$$
>  <COMPOUND>
CNC1CCc2cccc(Cn3c(=O)oc4cc(S(=O)(=O)Nc5ncns5)c(F)cc43)c2C1 (racemic)

>  <ASSAY SYSTEM>
human Nav1.7 channels stably expressed in HEK 293 cells (Homo sapiens)

>  <READOUT NUMBER>
7.92

$$$$
>  <COMPOUND>
CCC(O)(C#Cc1ccccc1[C@@H](C)n1c(=O)oc2cc(S(=O)(=O)Nc3ncns3)c(F)cc21)CC

>  <ASSAY SYSTEM>
human Nav1.7 channels stably expressed in HEK 293 cells (Homo sapiens)

>  <READOUT NUMBER>
6.98

$$$$
>  <COMPOUND>
O=c1oc2cc(S(=O)(=O)Nc3nccs3)c(F)cc2n1Cc1cccc2c1CNCC2F (single isomer, unassigned) [Compound 43-27]

>  <ASSAY SYSTEM>
human Nav1.7 channels stably expressed in HEK 293 cells (Homo sapiens)

>  <READOUT NUMBER>
6.97

$$$$
>  <COMPOUND>
O=c1oc2cc(S(=O)(=O)Nc3ncns3)c(F)cc2n1Cc1cccc2c1CC(N1CCOCC1)CC2 (racemic)

>  <ASSAY SYSTEM>
human Nav1.7 channels stably expressed in HEK 293 cells (Homo sapiens)

>  <READOUT NUMBER>
7.15

$$$$
>  <COMPOUND>
O=c1oc2cc(S(=O)(=O)Nc3ncns3)ccc2n1Cc1ccccc1C1=CCNCCC1

>  <ASSAY SYSTEM>
human Nav1.7 channels stably expressed in HEK 293 cells (Homo sapiens)

>  <READOUT NUMBER>
6.95

$$$$
>  <COMPOUND>
C[C@H](c1cccc2c1CN(S(C)(=O)=O)CC2)n1c(=O)oc2cc(S(=O)(=O)Nc3ncns3)c(F)cc21

>  <ASSAY SYSTEM>
human Nav1.7 channels stably expressed in HEK 293 cells (Homo sapiens)

>  <READOUT NUMBER>
6.81

$$$$
>  <COMPOUND>
O=c1oc2cc(S(=O)(=O)Nc3nccs3)c(F)cc2n1C1CCCc2ccc(F)cc21 (centres unmarked)

>  <ASSAY SYSTEM>
human Nav1.7 channels stably expressed in HEK 293 cells (Homo sapiens)

>  <READOUT NUMBER>
7.52

$$$$
>  <COMPOUND>
Nc1ccc2c(c1)C(n1c(=O)oc3cc(S(=O)(=O)Nc4ncns4)c(F)cc31)CCC2 (centres unmarked)

>  <ASSAY SYSTEM>
human Nav1.7 channels stably expressed in HEK 293 cells (Homo sapiens)

>  <READOUT NUMBER>
7.39

$$$$
>  <COMPOUND>
NCc1ccccc1Cn1c(=O)oc2cc(S(=O)(=O)Nc3ncns3)ccc21

>  <ASSAY SYSTEM>
human Nav1.7 channels stably expressed in HEK 293 cells (Homo sapiens)

>  <READOUT NUMBER>
6.44

$$$$
>  <COMPOUND>
CC(c1cccc2c1CC(N)CC2)n1c(=O)oc2cc(S(=O)(=O)Nc3ncns3)c(F)cc21 (racemic)

>  <ASSAY SYSTEM>
human Nav1.7 channels stably expressed in HEK 293 cells (Homo sapiens)

>  <READOUT NUMBER>
7.82

$$$$
>  <COMPOUND>
CC(c1cccc(-c2cccnc2)c1)n1c(=O)oc2cc(S(=O)(=O)Nc3ncns3)c(F)cc21 (centres unmarked)

>  <ASSAY SYSTEM>
human Nav1.7 channels stably expressed in HEK 293 cells (Homo sapiens)

>  <READOUT NUMBER>
6.79

$$$$
>  <COMPOUND>
C[C@H](c1cccc(C#CCN)c1)n1c(=O)oc2cc(S(=O)(=O)Nc3ncns3)c(F)cc21

>  <ASSAY SYSTEM>
human Nav1.7 channels stably expressed in HEK 293 cells (Homo sapiens)

>  <READOUT NUMBER>
7.55

$$$$
>  <COMPOUND>
O=c1oc2cc(S(=O)(=O)Nc3ncns3)c(F)cc2n1[C@H](CCF)c1ccccc1

>  <ASSAY SYSTEM>
human Nav1.7 channels stably expressed in HEK 293 cells (Homo sapiens)

>  <READOUT NUMBER>
6.88

$$$$
>  <COMPOUND>
Nc1ccc2c(c1)C(n1c(=O)oc3cc(S(=O)(=O)Nc4nccs4)c(F)cc31)CCC2 (centres unmarked) [Compound 43-16]

>  <ASSAY SYSTEM>
human Nav1.7 channels stably expressed in HEK 293 cells (Homo sapiens)

>  <READOUT NUMBER>
6.68

$$$$
>  <COMPOUND>
O=c1oc2cc(S(=O)(=O)Nc3nccs3)c(F)cc2n1C1CCCc2ccc(Cl)nc21 (centres unmarked)

>  <ASSAY SYSTEM>
human Nav1.7 channels stably expressed in HEK 293 cells (Homo sapiens)

>  <READOUT NUMBER>
6.38

$$$$
>  <COMPOUND>
NC1CCc2cccc(Cn3c(=O)oc4cc(S(=O)(=O)Nc5ncns5)c(F)cc43)c2C1 (racemic) [Compound 20-4]

>  <ASSAY SYSTEM>
human Nav1.7 channels stably expressed in HEK 293 cells (Homo sapiens)

>  <READOUT NUMBER>
6.75

$$$$
